Tested Target: Renin (Macaca fascicularis)
Sequence (Q6DLS0 whole entry): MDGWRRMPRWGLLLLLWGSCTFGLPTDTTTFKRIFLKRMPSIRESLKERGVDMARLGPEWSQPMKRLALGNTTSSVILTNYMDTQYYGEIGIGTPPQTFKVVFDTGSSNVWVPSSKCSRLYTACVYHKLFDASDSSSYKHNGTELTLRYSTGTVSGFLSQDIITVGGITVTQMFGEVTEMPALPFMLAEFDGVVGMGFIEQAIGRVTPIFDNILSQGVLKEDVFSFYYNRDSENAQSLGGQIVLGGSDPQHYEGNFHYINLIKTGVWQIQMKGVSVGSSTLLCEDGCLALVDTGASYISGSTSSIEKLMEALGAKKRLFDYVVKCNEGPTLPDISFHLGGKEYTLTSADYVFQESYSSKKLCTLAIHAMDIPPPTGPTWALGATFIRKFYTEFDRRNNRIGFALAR
Protocol Notes: Inhibition of renin in cynomolgus monkey plasma after 60 mins by competitive radioimmunoassay
Readout Name: IC50 (nM)

Compound	IC50 / nM
CC(C)C[C@@H](NC(=O)[C@@H]1CNC[C@H](N2CC(=O)N(c3ccccc3Cl)CC2(C)C)C1)C(O)C(C)C (stereo in doubt; 14)	7.5
CC(C)CC(CC(C)C)NC(=O)[C@@H]1CNC[C@H](N2CC(=O)N(c3ccccc3Cl)CC2(C)C)C1	10
CCC[C@@H](NC(=O)[C@@H]1CNC[C@H](N2CC(=O)N(c3ccccc3Cl)CC2(C)C)C1)c1ccccc1	18

a = CC(C)C[C@@H](NC(=O)[C@@H]1CNC[C@H](N2CC(=O)N(c3ccccc3Cl)CC2(C)C)C1)C(=O)N(C)C
b = CC(C)CCNC(=O)[C@@H]1CNC[C@H](N2CC(=O)N(c3ccccc3Cl)CC2(C)C)C1
c = CC(C)C[C@@H](NC(=O)[C@@H]1CNC[C@H](N2CC(=O)N(c3ccccc3Cl)CC2(C)C)C1)c1ccccc1
d = CC(C)C[C@@H](NC(=O)[C@@H]1CNC[C@H](N2CC(=O)N(c3ccccc3Cl)CC2(C)C)C1)c1cccnc1
Rank ascending by IC50. Returns: the labels arranged in the requested order.
d, c, a, b
(d: 4.2 nM, c: 9 nM, a: 23 nM, b: 54 nM)
